Entries and their DC50
target: CK1α (Homo sapiens); construct: HEK293 clonal lines with CRISPR KI HiBiT tag on CSNK1A1; assay: CK1α NanoBit Assay (HiBiT-tagged CSNK1A1, HEK293 clonal lines); format: cell-based; settings: HEK293 HiBiT-CSNK1A1/LgBiT cells, 24 h incubation
Sequence (P48729 whole entry): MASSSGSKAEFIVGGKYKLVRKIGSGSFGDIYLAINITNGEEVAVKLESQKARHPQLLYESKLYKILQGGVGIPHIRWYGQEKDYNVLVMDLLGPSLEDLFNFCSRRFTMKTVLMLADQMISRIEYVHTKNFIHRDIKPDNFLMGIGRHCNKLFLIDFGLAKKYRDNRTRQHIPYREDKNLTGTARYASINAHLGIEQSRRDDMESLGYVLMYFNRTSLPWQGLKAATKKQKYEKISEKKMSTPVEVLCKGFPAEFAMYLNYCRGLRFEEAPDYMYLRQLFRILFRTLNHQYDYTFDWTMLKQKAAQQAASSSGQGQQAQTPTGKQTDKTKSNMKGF
Sequence (Q96SW2 whole entry, further chain): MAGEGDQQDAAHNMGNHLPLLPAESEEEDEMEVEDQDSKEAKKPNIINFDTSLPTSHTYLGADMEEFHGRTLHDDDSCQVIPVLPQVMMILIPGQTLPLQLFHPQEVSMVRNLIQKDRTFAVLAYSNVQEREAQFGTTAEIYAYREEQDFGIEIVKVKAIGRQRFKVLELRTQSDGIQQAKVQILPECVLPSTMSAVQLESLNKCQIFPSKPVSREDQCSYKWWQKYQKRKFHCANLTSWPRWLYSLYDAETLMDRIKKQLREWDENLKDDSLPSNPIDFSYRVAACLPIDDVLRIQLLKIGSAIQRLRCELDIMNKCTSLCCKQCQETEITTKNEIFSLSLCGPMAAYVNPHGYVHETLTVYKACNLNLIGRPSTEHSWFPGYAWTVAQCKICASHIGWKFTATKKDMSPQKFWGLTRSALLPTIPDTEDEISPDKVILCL
Sequence (Q16531 2-1140 partner limits assumed): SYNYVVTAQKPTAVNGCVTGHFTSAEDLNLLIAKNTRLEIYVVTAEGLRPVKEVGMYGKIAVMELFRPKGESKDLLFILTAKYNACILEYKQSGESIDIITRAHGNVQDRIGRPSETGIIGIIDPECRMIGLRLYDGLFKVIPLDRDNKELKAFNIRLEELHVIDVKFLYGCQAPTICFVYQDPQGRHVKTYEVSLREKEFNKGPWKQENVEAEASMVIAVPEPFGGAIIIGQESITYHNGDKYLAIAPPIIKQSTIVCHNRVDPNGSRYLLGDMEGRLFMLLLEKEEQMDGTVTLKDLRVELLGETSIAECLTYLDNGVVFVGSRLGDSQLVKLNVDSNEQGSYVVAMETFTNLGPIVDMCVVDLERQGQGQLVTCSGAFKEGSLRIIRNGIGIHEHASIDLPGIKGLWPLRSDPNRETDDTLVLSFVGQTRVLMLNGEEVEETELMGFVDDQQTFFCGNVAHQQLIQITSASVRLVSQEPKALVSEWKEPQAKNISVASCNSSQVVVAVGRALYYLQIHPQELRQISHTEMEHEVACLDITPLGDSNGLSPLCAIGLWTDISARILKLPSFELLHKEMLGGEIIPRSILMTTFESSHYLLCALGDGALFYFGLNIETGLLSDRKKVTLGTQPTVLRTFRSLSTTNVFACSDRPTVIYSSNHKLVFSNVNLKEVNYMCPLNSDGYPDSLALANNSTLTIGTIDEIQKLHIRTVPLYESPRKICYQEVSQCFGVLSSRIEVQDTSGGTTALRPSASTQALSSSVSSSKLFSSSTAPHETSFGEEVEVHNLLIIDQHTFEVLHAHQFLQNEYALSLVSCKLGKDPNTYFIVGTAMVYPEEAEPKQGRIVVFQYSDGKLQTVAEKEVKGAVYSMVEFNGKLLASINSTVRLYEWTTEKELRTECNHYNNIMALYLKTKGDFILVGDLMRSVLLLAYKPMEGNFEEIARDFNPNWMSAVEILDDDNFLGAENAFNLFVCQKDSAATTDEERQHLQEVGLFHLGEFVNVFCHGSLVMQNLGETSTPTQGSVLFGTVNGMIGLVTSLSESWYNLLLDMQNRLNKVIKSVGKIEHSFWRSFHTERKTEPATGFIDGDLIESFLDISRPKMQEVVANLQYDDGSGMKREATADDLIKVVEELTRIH

Would you please look over these solved cases?
> print(dat)
                                   molecule  measured.quantity   test.value
1  O=C1CCC(N2Cc3cc(NC(=O)N4CCc5ccccc5C4c4ccccc4)ccc3C2=O)C(=O)N1 (centres unmarked) [Compound 211]               DC50     < 0.1 µM
2  C[C@H]1Cc2ccccc2N1C(=O)Nc1ccc2c(c1)CN(C1CCC(=O)NC1=O)C2=O (some centres unmarked) [Compound 101]               DC50     < 0.1 µM
3  COCc1ccc2c(c1)CCN2C(=O)Nc1ccc2c(c1)CN(C1CCC(=O)NC1=O)C2=O (centres unmarked) [Compound 330]               DC50     < 0.1 µM
4  CC(C)(C)C1Cc2ccccc2N(C(=O)Nc2ccc3c(c2)CN(C2CCC(=O)NC2=O)C3=O)C1 (centres unmarked) [Compound 154]               DC50     < 0.1 µM
5  Cn1cc(N2CCN(C(=O)Nc3ccc4c(c3)CN(C3CCC(=O)NC3=O)C4=O)CC2)cn1 (centres unmarked) [Compound 243]               DC50       > 1 µM
6  O=C1CCC(N2Cc3cc(NC(=O)N4Cc5ccccc5C(F)(F)C4)ccc3C2=O)C(=O)N1 (centres unmarked) [Compound 204]               DC50     < 0.1 µM
7  CC1CCN(C(=O)Nc2ccc3c(c2)CN(C2CCC(=O)NC2=O)C3=O)CC1 (centres unmarked) [Compound 281]               DC50  0.1 to 1 µM

# DC50 of O=C1CCC(N2Cc3cc(NC(=O)N4Cc5ccccc5C(C(F)(F)F)C4)ccc3C2=O)C(=O)N1 (centres unmarked) [Compound 196] = < 0.1 µM

* * *

experiment: Oral pharmacokinetics in male BALB/c mice; type: in vivo; conditions: mouse, PO 5 mg/kg (cassette dose), plasma, mean ± SD
measured-quantity: Tmax (min)
Numeric only. Scale: min

# Tmax of COC[C@H]1Cc2c(F)cccc2N1C(=O)Nc1ccc2c(c1)CN(C1CCC(=O)NC1=O)C2=O (stereo partly shown) [Compound 303] = 30

* * *

target: CK1α (Homo sapiens); construct: HEK293 clonal lines with CRISPR KI HiBiT tag on CSNK1A1; test: CK1α NanoBit Assay (HiBiT-tagged CSNK1A1, HEK293 clonal lines); type: cell-based; details: HEK293 HiBiT-CSNK1A1/LgBiT cells, 24 h incubation
Entries and their DC50

Would you please look over these solved cases?
> print(dat)
                                   compound  measured.quantity   test.value
1  O=C1CCC(N2Cc3cc(NC(=O)N4CCN(c5nccs5)CC4)ccc3C2=O)C(=O)N1 (stereo not drawn)               DC50       > 1 µM
2  O=C1CCC(N2Cc3cc(NC(=O)N4c5ccccc5C5CC54)ccc3C2=O)C(=O)N1 (stereo not drawn)               DC50     < 0.1 µM
3  O=C1CCC(N2Cc3cc(NC(=O)N4CCC(c5ccccn5)C4)ccc3C2=O)C(=O)N1 (stereo not drawn)               DC50  0.1 to 1 µM
4  O=C1CCC(N2Cc3cc(NC(=O)N4c5ccccc5C[C@H]4COCC(F)(F)F)ccc3C2=O)C(=O)N1 (stereo partly drawn)               DC50     < 0.1 µM
5  O=C1CCC(N2Cc3cc(NC(=O)N4c5cccc(F)c5CC45COC5)ccc3C2=O)C(=O)N1 (stereo not drawn)               DC50     < 0.1 µM

Known value: CK1α (Homo sapiens) DC50 of the compound O=C1CCC(N2Cc3cc(NC(=O)N4c5ccccc5C[C@H]4CN4CCC4)ccc3C2=O)C(=O)N1 (stereo partly drawn) equals 0.1 to 1 µM

Known value: CK1α (Homo sapiens) DC50 of the compound C[C@@H]1Cc2cc(F)ccc2N1C(=O)Nc1ccc2c(c1)CN(C1CCC(=O)NC1=O)C2=O (stereo partly drawn) equals < 0.1 µM

Known value: CK1α (Homo sapiens) DC50 of the compound O=C1CC[C@@H](N2Cc3cc(NC(=O)N4c5ccccc5C[C@@H]4C(F)(F)F)ccc3C2=O)C(=O)N1 (single isomer, unassigned) equals < 0.1 µM

Known value: CK1α (Homo sapiens) DC50 of the compound COC[C@@H]1Cc2cc(C(F)(F)F)ncc2N1C(=O)Nc1ccc2c(c1)CN(C1CCC(=O)NC1=O)C2=O (stereo partly drawn) equals < 0.1 µM

Known value: CK1α (Homo sapiens) DC50 of the compound CC(C)C1c2ccccc2CCN1C(=O)Nc1ccc2c(c1)CN(C1CCC(=O)NC1=O)C2=O (stereo not drawn) equals < 0.1 µM

Known value: CK1α (Homo sapiens) DC50 of the compound Cc1cccc2c1CCCN2C(=O)Nc1ccc2c(c1)CN(C1CCC(=O)NC1=O)C2=O (stereo not drawn) equals 0.1 to 1 µM

Known value: CK1α (Homo sapiens) DC50 of the compound O=C1CCC(N2Cc3cc(NC(=O)N4CCc5ccc(C6COC6)cc54)ccc3C2=O)C(=O)N1 (stereo not drawn) equals 0.1 to 1 µM

The reported numbers originate from patent US20250171420A1.
